# tgt: T1, Macaque 46 mer peptide (RB exon of macaque CD45RB) (macaque)
# T1 construct: synthetic peptide
# T1 peptide: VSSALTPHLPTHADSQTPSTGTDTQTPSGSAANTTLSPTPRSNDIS
# measurement protocol: ELISA, well supernatant on coated peptide

binder	ELISA reading
antibody in the supernatant of B cell culture well 250F2 (antibody, V domains shown, recombinant 662 came from this well) VH: QVQLVESGGDLVKPGGSLRLSCAASGFSFSGYYLSWIRQAPGKGLEWVSYISLSGSFIKYADSVKGRFTISRDNAKKTLHLQMNSLRAEDTAVYYCARRTGTTTVFDYWGQGTLVTVSS VL: EVVMTQSPATLSVSPGERATLSCRASQSVNSNLAWYQQRPGQAPRLLIYGASTRVTGIPARFSGSGSGTEFTLTISSLQSEDFAVYYCQQYNNWPLTFGGGTKVEIK	0.2

The measured values listed here are drawn from patent US20030232009A1.
